- Assayed System: FaGT2* (Fragaria x ananassa)
- Construct: gene GT2; full-length ORF, N-terminal GST tag kept (pGEX-4T-1), E. coli BL21(DE3) pLysS; natural allele of FaGT2 with eight amino acid differences, of which R230, E420, I422 (FaGT2: S230, D420, V422) are given
- Sequence (Q66PF4 whole entry): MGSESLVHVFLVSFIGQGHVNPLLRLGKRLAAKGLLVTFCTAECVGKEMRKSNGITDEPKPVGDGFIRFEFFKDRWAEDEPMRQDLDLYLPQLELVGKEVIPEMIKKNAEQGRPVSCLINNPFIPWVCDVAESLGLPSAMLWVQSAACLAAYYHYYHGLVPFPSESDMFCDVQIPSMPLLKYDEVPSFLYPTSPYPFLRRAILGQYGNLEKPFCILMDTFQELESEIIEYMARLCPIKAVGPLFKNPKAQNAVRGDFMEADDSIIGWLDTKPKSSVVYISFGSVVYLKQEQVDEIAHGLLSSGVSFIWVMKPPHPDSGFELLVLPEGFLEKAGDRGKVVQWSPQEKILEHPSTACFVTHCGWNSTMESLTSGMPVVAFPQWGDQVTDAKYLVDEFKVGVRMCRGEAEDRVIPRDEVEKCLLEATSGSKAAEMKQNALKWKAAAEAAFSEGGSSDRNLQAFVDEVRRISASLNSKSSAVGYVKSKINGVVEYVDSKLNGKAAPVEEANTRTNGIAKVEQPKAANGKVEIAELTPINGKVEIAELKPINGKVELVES
- Experiment: radiochemical UDP-[…]glucose transfer assay, butanol extraction, LSC; Hanes-Woolf and non-linear fit
- Type: biochemical
- Run Conditions: 100 mM Tris-HCl pH 7.0, 30 °C, 30 min, fixed UDP-glucose (10 010 pmol); GST fusion
Assay Endpoint: Km (µM)
Unit µM implied. Number only.

Query block: Using the record for O=C(O)c1ccc(O)cc1 [4-Hydroxybenzoic acid] , report its Km.
Result block: 315

Query block: Using the record for COc1cc(C(=O)O)ccc1O , report its Km.
Result block: 364

Query block: Using the record for COc1cc(C(=O)O)cc(OC)c1O , report its Km.
Result block: 262

Query block: Using the record for COc1cc(/C=C/C(=O)O)cc(OC)c1O , report its Km.
Result block: 35
